# TARGET SYSTEM: Msn1 (UniProt P22148)
# Sequence: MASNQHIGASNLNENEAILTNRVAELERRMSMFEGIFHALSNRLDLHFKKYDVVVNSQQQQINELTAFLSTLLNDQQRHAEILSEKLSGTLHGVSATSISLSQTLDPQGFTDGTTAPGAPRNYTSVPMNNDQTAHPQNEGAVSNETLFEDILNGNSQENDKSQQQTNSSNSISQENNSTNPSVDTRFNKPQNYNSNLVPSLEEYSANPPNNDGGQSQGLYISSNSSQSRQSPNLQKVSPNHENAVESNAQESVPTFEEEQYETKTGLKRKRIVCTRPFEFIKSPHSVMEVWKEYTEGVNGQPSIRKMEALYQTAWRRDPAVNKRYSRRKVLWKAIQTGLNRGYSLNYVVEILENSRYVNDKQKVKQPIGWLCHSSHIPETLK
# ASSAY DETAILS: PBM E-score (8-mer binding enrichment) (E-score (-0.5 to 0.5)); higher = stronger / more preferred TF binding
# CONDITION SET: protein concentration: 200 nM; construct: GST-full length
In all, about 33,000 sequences were measured (“E-score (-0.5 to 0.5)”: median about -0.013, highest 2% from about 0.3 on). This is one part of a sample in which the highest values are shown more often than they occur.
The class of a record is decided solely by its measured PBM E-score; consult lower band: < -0.006; central band: ≥ -0.006 and < 0.1; upper band: ≥ 0.1

Solved cases (6 shown):
- GGTCTAAA: lower band
- GTGGAAAC: upper band
- CTATGACA: upper band
- GACAAGTC: upper band
- TACAAATA: upper band
- CTATGACC: lower band

Input: Exam item: assign "ATGTAAAG" to the correct category.
Output: lower band

Input: Given "GGTCTGAA" , name the class its PBM E-score places it in.
Output: central band

Input: Returns: class label. Input: "CCTTGCCG"
Output: lower band

Input: Hello team, could you let me know which band the following sequence falls into: "TGTCTTAA"
Output: upper band

Input: Please classify: "ATGGACGA"
Output: upper band

Input: Just checking, what class would you give "CTAGTGGA" here?
Output: lower band

Input: Please indicate the class for "AGGAATTC" based on its PBM E-score.
Output: lower band

Input: For the record "AGTCTTAA" , report the class its PBM E-score corresponds to.
Output: upper band

Input: Dear colleague, I would appreciate it if you could identify the bin for "CGCTGACG" and reply at your convenience.
Output: lower band

Input: Form field 'band' for "AGTCTAAA"
Output: central band

Input: Any idea which band "CGATGACG" is in?
Output: lower band

Input: Which class holds "GTAGACAA" ?
Output: upper band

Input: Hey, which category is "CGCTGACA" in, do you know?
Output: upper band

Input: Kindly state the category for this sequence: "CTAGACAA"
Output: upper band

Input: Returns: class label. Input: "AGGTAATC"
Output: lower band
